The origin of these recorded values is patent US20260218138A1.

Answer each item with its documented kcat.
Assay: Enzyme-coupled assay: transfer of acyl-moieties from MMal-CoA to the ACP
Type: biochemical
Conditions: substrate MMal-CoA, acceptor ACP from murine FAS

Incoming: Item Mutant A01: engineered murine acyltransferase, mutation T161A (protein) NKRPLWFICSGMGTQWRGMGLSLMRLDSFRESILRSDEAVKPLGVKVSDLLLSTDERTFDDIVHAFVSLTAIQIALIDLLTSVGLKPDGIIGHSLGEVACGYADGCLSQREAVLAAYWRGQCIKDAHLPPGSMAAVGLSWEECKQRCPAGVVPACHNSEDAVTISGPQAAVNEFVEQLKQEGVFAKEVRTGGLAFHSYFMEGIAPTLLQALKKVIREPRPRSARWLSTSIPEAQWQSSLARTSSAEYNVNNLVSPVLFQEALWHIPEHAVVLEIAPHALLQAVLKRGVKSSCTIIPLMKRDHKDNLEFFLTNLGKVHLT has what recorded kcat?
Outgoing: 0.051 s⁻¹

Incoming: Item Mutant A08: engineered murine acyltransferase, mutation K285D (protein) NKRPLWFICSGMGTQWRGMGLSLMRLDSFRESILRSDEAVKPLGVKVSDLLLSTDERTFDDIVHAFVSLTAIQIALIDLLTSVGLKPDGIIGHSLGEVACGYADGCLSQREAVLAAYWRGQCIKDAHLPPGSMAAVGLSWEECKQRCPAGVVPACHNSEDTVTISGPQAAVNEFVEQLKQEGVFAKEVRTGGLAFHSYFMEGIAPTLLQALKKVIREPRPRSARWLSTSIPEAQWQSSLARTSSAEYNVNNLVSPVLFQEALWHIPEHAVVLEIAPHALLQAVLDRGVKSSCTIIPLMKRDHKDNLEFFLTNLGKVHLT has what recorded kcat?
Outgoing: 0.133 s⁻¹
